Entries annotated with measured TGI
- Tested on: SF-295 CNS
- assay_protocol: NCI tumour cell line growth inhibition, 48 h
endpoint_name: TGI

> print(dat)
                                   compound  test.result
1  CNc1nnnn1C1OC(CO)C(O)C1O (stereo unspecified)     > 100 µM
2  CCOC(=O)C1(Cc2ccccc2)Cc2cc3c(cc2C1=O)CCC3 (stereo unspecified)     > 100 µM
3  CN(C)CCCNC(=O)c1cc(NC(=O)CCNC(=O)c2ccc3c(c2)C(=O)c2ccccc2C3=O)cn1C     > 100 µM
4       CC/C(Cl)=N\OC(=O)Nc1ccccc1OC(F)(F)F      33.5 µM
5      O=c1c2c(sc3ccccc13)NCN(CCc1ccccc1)C2      43.5 µM
6  CC(=O)Nc1ccc(C2=N/C(=C\c3ccc(Cl)c(Cl)c3)C(=O)O2)cc1     > 100 µM

---

Entries annotated with measured GI50
- Test system: SK-MEL-28 melanoma
- assay_protocol: NCI tumour cell line growth inhibition, 48 h
endpoint_name: GI50

molecule	test_result
CCOC(=O)c1c[nH]c2c(OCc3ccccc3)c3ccccc3c(O)c2c1=O	25800 nM
COc1ccc(-c2cc(-c3ccc(O)cc3)nc3nc(=S)[nH]c(N)c23)cc1	66800 nM
COc1cc(-c2cc(/C=C/C(=O)c3ccc4c(c3)OCO4)[nH]n2)cc(OC)c1OC	2480 nM
CC(C)c1ccc2c(N=Nc3ccc(S(N)(=O)=O)cc3)c(O)[nH]c2c1	> 25000 nM
C=C1C(=O)O[C@H]2[C@H]1CC/C(COC(=O)/C=C\C(=O)NCc1ccc(Cn3c(=O)sn(-c4ccc(OC)cc4)c3=O)cc1)=C\CC[C@@]1(C)O[C@@H]21	825 nM
CCCn1cc(C2=C(c3cn(C)c4ccccc34)C(=O)NC2=O)c2ccccc21	2090 nM
COc1ccccc1CNCCCN1C(=O)c2ccc3c4c(ccc(c24)C1=O)C(=O)N(CCCNCCCCNCCCCN)C3=O	2100 nM
CN(CCCCCl)P(=O)(OCc1ccc([N+](=O)[O-])o1)C(F)(F)c1ccc(CC(=O)N[C@@H](CC(=O)O)C(=O)N[C@@H](Cc2ccc(C(F)(F)P(=O)(OCc3ccc([N+](=O)[O-])o3)N(C)CCCCCl)cc2)C(N)=O)cc1 (stereo partly drawn)	42400 nM

---

- System: HCT-15 colon
- assay_protocol: NCI tumour cell line growth inhibition, 48 h; in the data active means GI50 below about 0.43 µM; inactive means the rest
Possible outcomes: 1 (active), -1 (inactive)

> print(dat)
                                    molecule  class
 1  O=C(Nc1ncc(Cc2ccccc2)s1)c1ccc2c(c1)OCCO2      1
 2   O=C(c1ccccc1)c1ccc(Cl)c([N+](=O)[O-])c1     -1
 3  COc1cc(-c2cc(/C=C/C(=O)c3ccc4c(c3)OCO4)[nH]n2)cc(OC)c1OC     -1
 4  C=C1C(=O)O[C@H]2[C@H]1CC/C(C=Nc1ccc(C(F)(F)F)cc1N)=C\CC[C@@]1(C)O[C@@H]21     -1
 5                    CCCN(CCC)c1ccc(C=O)cc1     -1
 6          C(=N/Nc1ncnc2nc[nH]c12)/c1ccccn1     -1
 7                 CCOCCc1c(O)nc(SC)[nH]c1=O     -1
 8  O=C1Nc2ccccc2C1(c1ccc(O)c(F)c1)c1ccc(O)c(F)c1     -1
 9         Fc1ccc(CNc2c3ccccc3nc3ccccc23)cc1     -1
10  CCCCCCCCCCCCOC1C(CNC(=O)C2OC3OC(C)(C)OC3C2NC(=O)CN2CCN(c3ccccn3)CC2)OC2OC(C)(C)OC21 (stereo not given)     -1
11  C=CCCC(O)c1ccc(C(O)CCCCCCCCCCCC)o1 (stereo not given)     -1
12  CCCn1cc(C2=C(c3cn(C)c4ccccc34)C(=O)NC2=O)c2ccccc21     -1
13              CCCCCCCCCCCC1=NC(C)(C)CN1CCO     -1
14  Cc1ccc(Cl)cc1Nc1nc(C(F)(F)F)ccc1C(=O)N/N=C/c1c(Cl)cccc1Cl      1
15  CCc1ccc(CCC(=O)Nc2ncc(Cc3cc(Cl)ccc3Cl)s2)o1     -1
